assay: Apparent permeability across human Caco2 cells at 5 uM; assay type: ADME, cell-based; conditions: Caco-2
endpoint label: Papp at 5 µM (×10⁻⁶ cm/s)

INSERT INTO assay_data (smiles_entry, recorded_result) VALUES
  ('O=C(COc1ccc(C23CC4CC(CC(C4)C2)C3)cc1)Nc1cc(C(=O)NCCCn2ccnc2)ccn1', 22.9);

---

remaining at 2 h, 1 µM: recorded values
assay: Metabolic stability in human Hepatocyte assessed as compound remaining at 1 umol/L after 2 hrs by RP-HPLC analysis; format: ADME, cell-based; conditions: hepatocytes, read-out: Stability
endpoint label: remaining at 2 h, 1 µM

INSERT INTO results (compound, endpoint_label, recorded_result) VALUES
  ('COc1cc2c(cc1O)CC[C@@H]1[C@@H]2CC[C@]2(C)[C@@H](O)CC[C@@H]12 [2-METHOXYESTRADIOL]', 'remaining at 2 h, 1 µM', '> 65%'),
  ('COc1cc2c(cc1C(N)=O)CC[C@@H]1[C@@H]2CC[C@]2(C)CCC[C@@H]12', 'remaining at 2 h, 1 µM', '> 65%');

These data points were gathered from ChEMBL document CHEMBL2203096.
